# Tested on: K-562 leukemia
# ASSAY METHOD TEXT: NCI tumour cell line growth inhibition, 48 h; in the data active means GI50 below about 0.43 µM; inactive means the rest
Classes to choose from: YES for active, NO for inactive

MOL	MEASUREMENT TARGET	ASSIGNED LABEL
C/C(=C\c1ccn(-c2ccc(N)c(F)c2)n1)[C@@H]1C[C@@H]2O[C@]2(C)CCC[C@H](C)[C@H](O)[C@@H](C)C(=O)C(C)(C)[C@@H](O)CC(=O)O1	K-562 leukemia	YES
CCCCCCC#Cc1ccccc1C#CCO	K-562 leukemia	NO

**Query** Would you mind telling me which call this test gave `[C-]#[O+].[C-]#[O+].[C-]#[O+].[C-]#[O+].[Ir].[Ir].[O-]c1ccc2ccccc2c1C=Nc1ccc(N=Cc2c([O-])ccc3ccccc23)cc1` ?
**Result** NO

**Query** Would you mind telling me which call this test gave `N=c1c2c(-c3ccccc3)c(-c3ccccc3)n(Cc3ccccc3)c2ncn1CCCO` ?
**Result** NO

**Query** Would you mind telling me which call this test gave `N#Cc1cccc(C(=O)Nc2cccc(NC(=O)c3cccc(C#N)c3)c2)c1` ?
**Result** NO

**Query** Would you mind telling me which call this test gave `COc1ccn2c(C(C)=O)cc(C(=O)c3ccc4c(c3)Sc3ccccc3N4)c2c1` ?
**Result** YES

**Query** Would you mind telling me which call this test gave `CCCCCCCCCCCCCCCC[N+](C)(C)CCN(Cc1ccc(OC)cc1)c1ncccn1` ?
**Result** NO

**Query** Would you mind telling me which call this test gave `O=C(/C=C/c1cccs1)c1ccc(Nc2nc(Nc3ccc(F)cc3)nc(Nc3ccc(F)cc3)n2)cc1` ?
**Result** NO

**Query** Would you mind telling me which call this test gave `N#Cc1c2cccnc2c2nnc3cc(Cl)c(Cl)cc3n12` ?
**Result** NO

**Query** Would you mind telling me which call this test gave `COc1ccc(C(=O)COc2cccc(/C=C3\CSc4ccccc4C3=O)c2)cc1` ?
**Result** YES

**Query** Would you mind telling me which call this test gave `Cn1c(=O)c(Oc2ccc(F)cc2F)cc2cnc(NC(CO)CO)nc21` ?
**Result** NO

**Query** Would you mind telling me which call this test gave `C=CC1=C[C@@H]2[C@@H]3O[C@]4(CC[C@H](O4)[C@@H](C)C[C@@H](O)C3=O)C[C@H](O)C3=NCC[C@@]32CC1` ?
**Result** YES
